- target_entity: cyclooxygenase-2 (Mus musculus, UniProt Q05769)
- Construct: endogenous in cells; host or cells: Raw 264.7 (Korean cell line bank), induced with interferon γ and LPS
- assay_text: Cyclooxygenase-2 inhibition in Raw 264.7 cells (interferon γ/LPS induced, PGE2 EIA)
- Type: cell-based
- reported_conditions: 100 nM, Raw 264.7 cells
- Experimental: In order to investigate pharmacologically the selective inhibition activity against cyclooxygenase-2 enzyme, the inhibitive effects against cyclooxygenase-1 and cyclooxygenase-2 were measured by two methods as follows. And then, each samples were replaced with new media and cultured for 30 minutes. […] Then, the media was transferred to other tubes and the PGE 2 was quantitated by using EIA kit from Cayman Chemicals.
Label y when Inhibitory effects of cyclooxygenase (COX): COX-2 (Raw 264.7) is at or above 30 % inhibition; otherwise label n.

{"compound": "CS(=O)(=O)c1ccc(-c2ncccc2OC2CCCC2)cn1", "target_entity": "cyclooxygenase-2 (Mus musculus, UniProt Q05769)", "class_name": "y"}
{"compound": "C[C@H](CO)COc1cccnc1-c1ccc(S(C)(=O)=O)nc1", "target_entity": "cyclooxygenase-2 (Mus musculus, UniProt Q05769)", "class_name": "n"}
{"compound": "CC(C)Oc1cccnc1-c1ccc(S(C)(=O)=O)nc1", "target_entity": "cyclooxygenase-2 (Mus musculus, UniProt Q05769)", "class_name": "n"}
{"compound": "C[C@@H](CO)COc1cccnc1-c1ccc(S(C)(=O)=O)nc1", "target_entity": "cyclooxygenase-2 (Mus musculus, UniProt Q05769)", "class_name": "n"}

Answer whether Inhibitory effects of cyclooxygenase (COX): COX-2 (Raw 264.7) of CC(C)=CCOc1cccnc1-c1ccc(S(C)(=O)=O)nc1 is greater than or equal to 30 % inhibition.
n

###

- target_entity: cyclooxygenase-2 (Mus musculus)
- Construct: endogenous in cells; host or cells: Raw 264.7 (Korean cell line bank), induced with interferon γ and LPS
- Sequence (Q05769 18-604): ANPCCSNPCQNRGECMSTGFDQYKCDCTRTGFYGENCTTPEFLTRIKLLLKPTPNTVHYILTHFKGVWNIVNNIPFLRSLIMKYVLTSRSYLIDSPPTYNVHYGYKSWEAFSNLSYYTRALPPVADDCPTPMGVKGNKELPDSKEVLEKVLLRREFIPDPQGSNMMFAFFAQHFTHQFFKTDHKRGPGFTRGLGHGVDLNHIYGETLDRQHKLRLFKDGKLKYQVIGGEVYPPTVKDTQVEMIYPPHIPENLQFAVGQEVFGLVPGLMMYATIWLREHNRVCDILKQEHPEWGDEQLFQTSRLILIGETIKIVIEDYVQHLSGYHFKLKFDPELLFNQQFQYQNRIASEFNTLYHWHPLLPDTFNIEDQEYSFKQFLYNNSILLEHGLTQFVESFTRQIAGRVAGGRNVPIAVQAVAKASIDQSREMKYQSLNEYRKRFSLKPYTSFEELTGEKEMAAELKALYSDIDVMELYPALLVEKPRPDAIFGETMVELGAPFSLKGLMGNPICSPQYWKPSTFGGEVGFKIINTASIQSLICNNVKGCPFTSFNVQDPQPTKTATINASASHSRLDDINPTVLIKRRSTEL
- assay_text: Cyclooxygenase-2 inhibition in Raw 264.7 cells (interferon γ/LPS induced, PGE2 EIA)
- Assay type: cell-based
- reported_conditions: in words; COX-2 versus COX-1, compared with SC-58635
observable: selectivity of cyclooxygenase-2 compared with standard substance

{"compound": "C[C@@H](CO)COc1cccnc1-c1ccc(S(C)(=O)=O)nc1", "recorded_result": "hardly different"}
{"compound": "C[C@H](CO)COc1cccnc1-c1ccc(S(C)(=O)=O)nc1", "recorded_result": "hardly different"}
{"compound": "CC(C)Oc1cccnc1-c1ccc(S(C)(=O)=O)nc1", "recorded_result": "hardly different"}

###

- target_entity: cyclooxygenase-1 (Homo sapiens, UniProt P23219)
- Construct: endogenous in cells; host or cells: U-937 (Korean cell line bank)
- Sequence (P23219 24-599): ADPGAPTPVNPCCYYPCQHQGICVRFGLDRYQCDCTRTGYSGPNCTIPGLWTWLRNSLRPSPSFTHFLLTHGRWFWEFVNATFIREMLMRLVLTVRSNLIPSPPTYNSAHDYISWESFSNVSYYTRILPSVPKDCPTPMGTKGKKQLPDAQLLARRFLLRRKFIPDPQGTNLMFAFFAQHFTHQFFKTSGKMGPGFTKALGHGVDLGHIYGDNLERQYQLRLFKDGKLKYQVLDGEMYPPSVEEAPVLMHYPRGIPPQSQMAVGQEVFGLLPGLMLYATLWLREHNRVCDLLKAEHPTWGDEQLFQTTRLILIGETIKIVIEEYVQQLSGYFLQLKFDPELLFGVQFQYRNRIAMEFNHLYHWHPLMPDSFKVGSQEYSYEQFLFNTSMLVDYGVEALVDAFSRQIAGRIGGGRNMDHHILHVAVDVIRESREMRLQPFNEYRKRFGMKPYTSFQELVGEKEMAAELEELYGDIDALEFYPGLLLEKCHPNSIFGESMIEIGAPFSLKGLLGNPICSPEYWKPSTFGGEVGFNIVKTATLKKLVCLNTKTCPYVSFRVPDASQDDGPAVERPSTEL
- assay_text: Cyclooxygenase-1 inhibition in U-937 cells (PGE2 quantitation after arachidonic acid)
- Type: cell-based
- reported_conditions: 3 μM, U-937 cells
Criterion: Inhibitory effects of cyclooxygenase (COX): COX-1 (U-937) meeting or surpassing 10 % inhibition. Met: met. Not met: not met.

Example cases with answers are listed next.
{"compound": "C[C@@H](CO)COc1cccnc1-c1ccc(S(C)(=O)=O)nc1", "target_entity": "cyclooxygenase-1 (Homo sapiens, UniProt P23219)", "class_name": "met"}
{"compound": "CS(=O)(=O)c1ccc(-c2ncccc2OC2CCCCC2)cn1", "target_entity": "cyclooxygenase-1 (Homo sapiens, UniProt P23219)", "class_name": "met"}
{"compound": "C[C@H](CO)COc1cccnc1-c1ccc(S(C)(=O)=O)nc1", "target_entity": "cyclooxygenase-1 (Homo sapiens, UniProt P23219)", "class_name": "met"}
{"compound": "CC(C)=CCOc1cccnc1-c1ccc(S(C)(=O)=O)nc1", "target_entity": "cyclooxygenase-1 (Homo sapiens, UniProt P23219)", "class_name": "met"}

Does the reported Inhibitory effects of cyclooxygenase (COX): COX-1 (U-937) for CC(C)Oc1cccnc1-c1ccc(S(C)(=O)=O)nc1 fall at or above the 10 % inhibition mark?
not met

Determine whether measured Inhibitory effects of cyclooxygenase (COX): COX-1 (U-937) meets or exceeds 10 % inhibition for CS(=O)(=O)c1ccc(-c2ncccc2OC2CCCC2)cn1
met

###

In this section we review reported Inhibitory effects of cyclooxygenase (COX): COX-1 (U-937) values for a set of compounds.
- target_entity: cyclooxygenase-1 (Homo sapiens, UniProt P23219)
- Construct: endogenous in cells; host or cells: U-937 (Korean cell line bank)
- assay_text: Cyclooxygenase-1 inhibition in U-937 cells (PGE2 quantitation after arachidonic acid)
- Type: cell-based
- reported_conditions: 10 μM, U-937 cells
Form entry: value (% inhibition) — number only.

Some solved cases for reference:
{"compound": "C[C@@H](CO)COc1cccnc1-c1ccc(S(C)(=O)=O)nc1", "recorded_result": 24.5}
{"compound": "CC(C)Oc1cccnc1-c1ccc(S(C)(=O)=O)nc1", "recorded_result": 11.0}
{"compound": "CS(=O)(=O)c1ccc(-c2ncccc2OC2CCCCC2)cn1", "recorded_result": 14.0}
{"compound": "C[C@H](CO)COc1cccnc1-c1ccc(S(C)(=O)=O)nc1", "recorded_result": 18.9}
{"compound": "CS(=O)(=O)c1ccc(-c2ncccc2OC2CCCC2)cn1", "recorded_result": 21.0}

Write down measured Inhibitory effects of cyclooxygenase (COX): COX-1 (U-937) (cyclooxygenase-1 (Homo sapiens, UniProt P23219)) for this compound. CC(C)=CCOc1cccnc1-c1ccc(S(C)(=O)=O)nc1
17.0

###

- target_entity: cyclooxygenase-2 (Mus musculus)
- Construct: endogenous in cells; host or cells: Raw 264.7 (Korean cell line bank), induced with interferon γ and LPS
- assay_text: Cyclooxygenase-2 inhibition in Raw 264.7 cells (interferon γ/LPS induced, PGE2 EIA)
- Type: cell-based
- reported_conditions: 300 nM, Raw 264.7 cells
observable: Inhibitory effects of cyclooxygenase (COX): COX-2 (Raw 264.7) (% inhibition)
Please reply with the bare figure in % inhibition and do not write the unit itself.

Consider the reported Inhibitory effects of cyclooxygenase (COX): COX-2 (Raw 264.7) for these compounds:
{"compound": "CC(C)Oc1cccnc1-c1ccc(S(C)(=O)=O)nc1 [Example 1]", "unit_symbol": "% inhibition", "recorded_result": 15.2}
{"compound": "C[C@@H](CO)COc1cccnc1-c1ccc(S(C)(=O)=O)nc1 [Example 6]", "unit_symbol": "% inhibition", "recorded_result": 21.0}
{"compound": "CS(=O)(=O)c1ccc(-c2ncccc2OC2CCCC2)cn1 [Example 2]", "unit_symbol": "% inhibition", "recorded_result": 63.5}
{"compound": "CS(=O)(=O)c1ccc(-c2ncccc2OC2CCCCC2)cn1 [Example 3]", "unit_symbol": "% inhibition", "recorded_result": 42.2}
{"compound": "C[C@H](CO)COc1cccnc1-c1ccc(S(C)(=O)=O)nc1 [Example 5]", "unit_symbol": "% inhibition", "recorded_result": 20.1}

Now look at this entry.
Kindly indicate its recorded Inhibitory effects of cyclooxygenase (COX): COX-2 (Raw 264.7). Item: CC(C)=CCOc1cccnc1-c1ccc(S(C)(=O)=O)nc1 [Example 4]
40.8
